measured-target: DLG2_2, Q15700
Sequence (Q15700 189-283): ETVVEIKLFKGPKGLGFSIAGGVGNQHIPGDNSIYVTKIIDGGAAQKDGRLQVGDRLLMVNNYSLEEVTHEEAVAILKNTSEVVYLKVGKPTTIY
assay-summary: holdup assay
Set-up: key: below the threshold = too weak to quantify, mostly under pKd 3.1 to 4
assay-context: plain residues with an end cap or a label only (N-terminal biotin on a linker: ahx)
Below, each entry is listed alongside its reported pKd.
Write the value as a bare number.

binder	endpoint-result
LSDPSVSTVV [GRIN1, Q05586]	3.71

Which measured pKd value corresponds to TVICWPGSLV [LNX2, Q8N448] ? 3.9

Recorded pKd for RRRKRKRTYL [HPV49-L2, P36762] , please? 4.58
